Entry source: patent US7491827B2

# measured.target: cloned human CCR8 receptor stably expressed in L1.2 cells (Homo sapiens, UniProt P51685)
# Construct: expressed in transfected cells
# Sequence (P51685 whole entry): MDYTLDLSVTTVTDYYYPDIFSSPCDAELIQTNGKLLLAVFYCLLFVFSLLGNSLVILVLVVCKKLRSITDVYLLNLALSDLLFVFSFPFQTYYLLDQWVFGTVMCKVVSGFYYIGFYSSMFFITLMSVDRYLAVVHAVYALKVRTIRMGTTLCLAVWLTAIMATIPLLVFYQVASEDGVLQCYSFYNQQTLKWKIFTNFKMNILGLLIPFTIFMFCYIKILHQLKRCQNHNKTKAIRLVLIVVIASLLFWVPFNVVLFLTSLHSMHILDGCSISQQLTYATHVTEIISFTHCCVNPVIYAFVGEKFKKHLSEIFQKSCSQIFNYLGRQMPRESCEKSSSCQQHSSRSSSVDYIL
# protocol: whole cell binding screen: inhibition of biotinylated human I309 binding to CCR8 (FMAT 8100 HTS)
# settings: L1.2/hCCR8 cells, biotinylated human I-309, 10 point concentration response starting at 10 μM; read-out: Ki of compounds to inhibit I-309 binding to CCR8
pKi: −log10 of the molar value.
Can you tell me pKi for the items I'm about to list?

Use the examples below as a reference point.
compound="CCOC(=O)N1[C@@H]2CC[C@H]1C[C@@H](NS(=O)(=O)c1ccc(NC(=O)c3ccccc3C)c3ccccc13)C2 [Compound C-10]" measured_target="cloned human CCR8 receptor stably expressed in L1.2 cells (Homo sapiens, UniProt P51685)" result="> 6.30"
compound="CCCC(=O)N1CC[C@H](NS(=O)(=O)c2ccc(NC(=O)c3c(C)noc3C)c3ccccc23)[C@H](C)C1 (racemic) [Compound D-5]" measured_target="cloned human CCR8 receptor stably expressed in L1.2 cells (Homo sapiens, UniProt P51685)" result="> 6.30"
compound="Cc1ccccc1NC(=O)c1cccc2c(S(=O)(=O)NC3CCN(C(=O)N(C)C)CC3)cccc12 [Compound H-32]" measured_target="cloned human CCR8 receptor stably expressed in L1.2 cells (Homo sapiens, UniProt P51685)" result="> 6.30"
compound="CCCC(=O)N1CC[C@H](NS(=O)(=O)c2ccc(NC(=O)c3ccccc3C)c3ccccc23)[C@H](C(=O)O)C1 (racemic) [Compound C-78]" measured_target="cloned human CCR8 receptor stably expressed in L1.2 cells (Homo sapiens, UniProt P51685)" result="> 4.52"
compound="CCOC(=O)N1CCC(NS(=O)(=O)c2cccc3c(NC(=O)c4cc5ccccc5s4)cccc23)CC1 [Compound H-18]" measured_target="cloned human CCR8 receptor stably expressed in L1.2 cells (Homo sapiens, UniProt P51685)" result="> 6.30"
compound="Cc1ccccc1C(=O)Nc1ccc(S(=O)(=O)NC2CCN(S(=O)(=O)c3ccccc3)CC2)c2ccccc12 [Compound C-58]" measured_target="cloned human CCR8 receptor stably expressed in L1.2 cells (Homo sapiens, UniProt P51685)" result="> 6.30"

Need pKi for each of these compounds.
1. CCCC(=O)N1CCC(NS(=O)(=O)c2ccc(NC(=O)c3ccccc3C)c3c2CCCC3)CC1 [Compound E-1]
2. Cc1ccccc1C(=O)Nc1ccc(S(=O)(=O)N[C@H]2CCNC[C@@H]2C)c2ccccc12 (racemic) [Compound C-14]
3. Cc1ccccc1C(=O)Nc1ccc(S(=O)(=O)NC2CCN(C(=O)CN(C)C)CC2)c2ccccc12 [Compound C-55]
4. CCCC(=O)N1CC[C@H](NS(=O)(=O)c2ccc(NC(=O)c3ncccc3C)c3ccccc23)[C@H](C)C1 (racemic) [Compound D-4]
5. CCNC(=O)N1CCC(NS(=O)(=O)c2ccc(C(=O)NC3CCCCC3)c3ccccc23)CC1 [Compound F-8]
6. CC(C)(C)OC(=O)N1CCC(NS(=O)(=O)c2ccc(NC(=O)C3CCCCC3)c3ccccc23)CC1 [Compound B-19]
7. CCOC(=O)N1CCC(NS(=O)(=O)c2ccc(NC(=O)C3CCCCC3)c3ccccc23)CC1 [Compound B-12]

["> 6.30", "> 6.30", "> 6.30", "> 6.30", "> 6.30", "> 6.30", "> 6.30"]

Need pKi for each of these compounds.
1. CCCC(=O)N1CCC(NS(=O)(=O)c2ccc(NC(=O)c3c(F)cccc3F)c3ccccc23)CC1 [Compound C-109]
2. CCOC(=O)[C@@H]1CN(Cc2ccccc2)CC[C@H]1NS(=O)(=O)c1ccc(NC(=O)c2ccccc2C)c2ccccc12 (racemic) [Compound A-48]
3. CCOC(=O)N1CCC(NS(=O)(=O)c2ccc(CNC(=O)c3ccccc3C)c3ccccc23)CC1 [Compound G-1]
4. COc1ccc(NS(=O)(=O)c2ccc(NC(=O)c3ccccc3)c3c2CCCC3)cc1 [Compound E-3]
5. O=C(Nc1ccccc1Cl)c1ccc(S(=O)(=O)NC2CCNCC2)c2ccccc12 [Compound F-17]
6. Cc1ccccc1C(=O)Nc1ccc(S(=O)(=O)NCC2CCCCC2)c2c1CCCC2 [Compound E-27]

1. > 6.00
2. > 4.52
3. > 6.30
4. > 6.30
5. > 4.52
6. > 6.30

Need pKi for each of these compounds.
1. CN(C)C(=O)N1CCC(NS(=O)(=O)c2ccc(C(=O)NC3CCOCC3)c3ccccc23)CC1 [Compound F-21]
2. CCOC(=O)N1CCC(C)(NS(=O)(=O)c2ccc(NC(=O)c3ccccc3C)c3ccccc23)CC1 [Compound C-25]
3. CCOC(=O)N1CCC(NS(=O)(=O)c2ccc(NC(=O)c3ccccc3)c3c2CCCC3)CC1 [Compound E-4]
4. CCOC(=O)N1CCC(NS(=O)(=O)c2cccc3c(NC(=O)N4CCOCC4)cccc23)CC1 [Compound H-17]
5. CCCC(=O)N1CCC(NS(=O)(=O)c2ccc(NC(=O)c3ccccc3C)c3ccccc23)C(C)(C)C1 (racemic) [Compound C-23]

1: > 6.30; 2: > 6.30; 3: > 6.00; 4: > 6.00; 5: > 4.52

Need pKi for each of these compounds.
1. O=C(Nc1ccc(S(=O)(=O)NC2CCNCC2)c2ccccc12)C1CCCCC1 [Compound D-14]
2. CCOC(=O)N1CCC(NS(=O)(=O)c2cccc3c(CNCc4ccc(Cl)cc4)cccc23)CC1 [Compound H-45]
3. Cc1ccccc1C(=O)Nc1ccc(S(=O)(=O)NC2(C)CCNCC2)c2ccccc12 [Compound J-49]
4. Cc1ccccc1C(=O)Nc1ccc(S(=O)(=O)NC2CCNC2)c2ccccc12 (racemic) [Compound C-48]
5. CCOC(=O)N1CCC(NS(=O)(=O)c2ccc(CN(CC)C3CCCCC3)c3ccccc23)CC1 [Compound G-20]

1: > 6.30; 2: > 6.30; 3: > 6.30; 4: > 6.30; 5: > 6.30
